- System: 134 cancer cell lines
- assay.procedure: Cell viability assay (ATPlite, 72 hours), IC50 on cancer cell line panel
- protocol.conditions: Homo sapiens, MOLT-4, read-out: IC50 in cell proliferation assay, MOLT-4 cell line
pIC50: −log10 of the molar value.
metric: pIC50

> print(dat)
                            molecule.smiles  metric  qualifying.sign  measured.result
1  CCCS(=O)(=O)Nc1ccc(F)c(C(=O)c2c[nH]c3ncc(-c4ccc(Cl)cc4)cc23)c1F   pIC50                =             4.51
2  Cn1cnc2c(F)c(Nc3ccc(Br)cc3Cl)c(C(=O)NOCCO)cc21   pIC50                <             4.50
3  O=C(c1ccc(F)c(F)c1Nc1ccc(I)cc1F)N1CC(O)([C@@H]2CCCCN2)C1   pIC50                <             5.00
4  COc1cc2ncnc(Nc3ccc(F)c(Cl)c3)c2cc1NC(=O)/C=C/CN1CCCCC1   pIC50                =             5.44
5  Cc1cc(Nc2ncnc3ccc(NC4=NC(C)(C)CO4)cc23)ccc1Oc1ccn2ncnc2c1   pIC50                =             4.69

* * *

- test.system: panel of 255 wild-type kinases (Homo sapiens, UniProt Q9UQB9)
- Sequence (Q9UQB9 whole entry): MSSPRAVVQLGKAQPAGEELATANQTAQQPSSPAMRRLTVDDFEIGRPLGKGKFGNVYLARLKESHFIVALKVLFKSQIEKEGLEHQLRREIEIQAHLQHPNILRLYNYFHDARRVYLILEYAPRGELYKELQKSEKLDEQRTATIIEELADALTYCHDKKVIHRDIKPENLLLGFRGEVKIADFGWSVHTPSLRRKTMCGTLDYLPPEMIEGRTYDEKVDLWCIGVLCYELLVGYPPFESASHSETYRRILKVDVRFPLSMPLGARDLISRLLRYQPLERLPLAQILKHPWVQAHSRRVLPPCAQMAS
- assay.procedure: Kinase panel profiling at 1 µmol/L (MSA or IMAP), percentage inhibition
- Format: biochemical
- protocol.conditions: AurC kinase assay; 1 µmol/L single concentration; read-out: %-inhibition AurC
metric: inhibition at 1 µM (%)

> print(dat)
                            molecule.smiles  endpoint.unit  measured.result
1  CCN1C(=O)N(c2c(F)c(OC)cc(OC)c2F)Cc2cnc3[nH]c(CN4CCOCC4)cc3c21              %                5
2  O=C(Nc1cnn2ccc(N3CCC[C@@H]3c3cc(F)ccc3F)nc12)N1CC[C@H](O)C1              %          -0.0475
3  C=CC(=O)N1CCC([C@@H]2CCNc3c(C(N)=O)c(-c4ccc(Oc5ccccc5)cc4)nn32)CC1              %           -0.855

* * *

- test.system: panel of 255 wild-type kinases (Homo sapiens)
- assay.procedure: Kinase panel profiling at 1 µmol/L (MSA or IMAP), percentage inhibition
- Type: biochemical
- protocol.conditions: kinase TXK; 1 µmol/L single concentration; read-out: %-inhibition at 1 µmol/L, TXK
Entries annotated with measured inhibition at 1 µM
metric: inhibition at 1 µM (%)

> print(dat)
                            molecule.smiles                               test.system  measured.result
1  CCn1c(=O)c(-c2cc(NC(=O)Nc3ccccc3)c(F)cc2Br)cc2cnc(NC)cc21  panel of 255 wild-type kinases (Homo sapiens)               11
2  FC(F)(F)c1ccc(CNc2ccc(Cc3c[nH]c4ncc(Cl)cc34)cn2)cn1  panel of 255 wild-type kinases (Homo sapiens)             6.34
3  Cc1nc(NC(=O)N2CCC[C@H]2C(N)=O)sc1-c1ccnc(C(C)(C)C(F)(F)F)c1  panel of 255 wild-type kinases (Homo sapiens)               -4
4  C[C@H](Nc1ncnc2nc[nH]c12)c1cc2cccc(Cl)c2c(=O)n1-c1ccccc1  panel of 255 wild-type kinases (Homo sapiens)           -0.177

* * *

- test.system: panel of 255 wild-type kinases (Homo sapiens, UniProt P49840)
- Sequence (P49840 whole entry): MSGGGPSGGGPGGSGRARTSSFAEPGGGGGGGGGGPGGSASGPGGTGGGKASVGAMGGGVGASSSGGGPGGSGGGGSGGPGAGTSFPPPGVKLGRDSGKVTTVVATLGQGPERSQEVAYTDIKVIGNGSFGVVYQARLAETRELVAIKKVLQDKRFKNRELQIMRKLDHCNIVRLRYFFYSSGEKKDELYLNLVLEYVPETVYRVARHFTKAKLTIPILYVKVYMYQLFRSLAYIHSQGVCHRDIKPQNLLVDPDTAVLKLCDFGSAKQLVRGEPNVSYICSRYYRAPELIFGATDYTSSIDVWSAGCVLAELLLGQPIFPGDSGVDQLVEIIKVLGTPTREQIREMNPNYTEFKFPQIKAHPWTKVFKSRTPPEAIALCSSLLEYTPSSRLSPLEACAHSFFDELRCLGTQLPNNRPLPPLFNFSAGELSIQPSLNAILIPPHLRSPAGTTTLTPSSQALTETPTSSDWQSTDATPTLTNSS
- assay.procedure: Kinase panel profiling at 1 µmol/L (MSA or IMAP), percentage inhibition
- Type: biochemical
- protocol.conditions: kinase GSK3α; 1 µmol/L single concentration; read-out: %-inhibition at 1 µmol/L, GSK3α
metric: inhibition at 1 µM (%)

> print(dat)
                            molecule.smiles  endpoint.unit  measured.result
1  FC(F)(F)c1ccc(CNc2ccc(Cc3c[nH]c4ncc(Cl)cc34)cn2)cn1              %                3
2  CCc1nc(C(N)=O)c(Nc2ccc(N3CCC(N4CCN(C)CC4)CC3)c(OC)c2)nc1NC1CCOCC1              %             7.48
3  CN1CCN(c2ccc(C(=O)Nc3n[nH]c4ccc(Cc5cc(F)cc(F)c5)cc34)c(NC3CCOCC3)c2)CC1              %           -0.424
4  Cc1cc(Nc2ncnc3ccc(NC4=NC(C)(C)CO4)cc23)ccc1Oc1ccn2ncnc2c1              %             5.54
5  Cn1cnc2c(F)c(Nc3ccc(Br)cc3Cl)c(C(=O)NOCCO)cc21              %            -1.06
6  Cc1nc(NC(=O)N2CCC[C@H]2C(N)=O)sc1-c1ccnc(C(C)(C)C(F)(F)F)c1              %            -2.64
7  COC(=O)N[C@@H](C)CNc1nccc(-c2cn(C(C)C)nc2-c2cc(Cl)cc(NS(C)(=O)=O)c2F)n1              %               55
8  C=CC(=O)N1CCC([C@@H]2CCNc3c(C(N)=O)c(-c4ccc(Oc5ccccc5)cc4)nn32)CC1              %               -7

* * *

Entries annotated with measured inhibition at 1 µM
- test.system: panel of 255 wild-type kinases (Homo sapiens)
- assay.procedure: Kinase panel profiling at 1 µmol/L (MSA or IMAP), percentage inhibition
- Format: biochemical
- protocol.conditions: kinase PIM2; 1 µmol/L single concentration; read-out: %-inhibition at 1 µmol/L, PIM2
metric: inhibition at 1 µM

> print(dat)
                            molecule.smiles                               test.system              metric  measured.result
1  CCc1nc(C(N)=O)c(Nc2ccc(N3CCC(N4CCN(C)CC4)CC3)c(OC)c2)nc1NC1CCOCC1  panel of 255 wild-type kinases (Homo sapiens)  inhibition at 1 µM           -1.37%
2  Cn1cnc2c(F)c(Nc3ccc(Br)cc3F)c(C(=O)NOCCO)cc21  panel of 255 wild-type kinases (Homo sapiens)  inhibition at 1 µM            -6.4%
3  CCn1c(=O)c(-c2cc(NC(=O)Nc3ccccc3)c(F)cc2Br)cc2cnc(NC)cc21  panel of 255 wild-type kinases (Homo sapiens)  inhibition at 1 µM              -3%
4  Cn1cc(-c2cc3c(N4CCN(c5ncc([C@@](C)(N)c6ccc(F)cc6)cn5)CC4)ncnn3c2)cn1  panel of 255 wild-type kinases (Homo sapiens)  inhibition at 1 µM           -2.22%

* * *

- Tested on: 134 cancer cell lines
- assay.procedure: Cell viability assay (ATPlite, 72 hours), IC50 on cancer cell line panel
- protocol.conditions: Homo sapiens, BT-474, read-out: IC50 in cell proliferation assay
pIC50: −log10 of the molar value.
metric: pIC50

> print(dat)
                            molecule.smiles  metric  qualifying.sign  measured.result
1  C=CC(=O)N1CCC([C@@H]2CCNc3c(C(N)=O)c(-c4ccc(Oc5ccccc5)cc4)nn32)CC1   pIC50                =             6.67
2  CCn1c(=O)c(-c2cc(NC(=O)Nc3ccccc3)c(F)cc2Br)cc2cnc(NC)cc21   pIC50                =             5.65
3  CCN1C(=O)N(c2c(F)c(OC)cc(OC)c2F)Cc2cnc3[nH]c(CN4CCOCC4)cc3c21   pIC50                <             4.50

* * *

- test.system: UniProt Q9HBY8
- Sequence (Q9HBY8 whole entry): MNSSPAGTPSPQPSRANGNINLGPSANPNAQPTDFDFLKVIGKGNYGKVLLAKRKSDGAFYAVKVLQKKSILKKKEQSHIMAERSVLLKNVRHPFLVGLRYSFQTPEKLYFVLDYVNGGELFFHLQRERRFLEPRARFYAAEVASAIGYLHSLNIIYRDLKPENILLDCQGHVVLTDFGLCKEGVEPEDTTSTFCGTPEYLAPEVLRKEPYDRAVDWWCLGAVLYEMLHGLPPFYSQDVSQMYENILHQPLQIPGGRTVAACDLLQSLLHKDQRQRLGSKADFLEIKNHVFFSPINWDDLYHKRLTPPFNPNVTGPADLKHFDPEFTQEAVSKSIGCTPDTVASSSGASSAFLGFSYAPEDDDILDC
- assay.procedure: Kinase panel profiling at 1 µmol/L (MSA or IMAP), percentage inhibition
- Type: biochemical
- protocol.conditions: kinase SGK2; 1 µmol/L single concentration; read-out: %-inhibition at 1 µmol/L, SGK2
metric: inhibition at 1 µM (%)

> print(dat)
                            molecule.smiles              metric  measured.result
1  CCc1nc(C(N)=O)c(Nc2ccc(N3CCC(N4CCN(C)CC4)CC3)c(OC)c2)nc1NC1CCOCC1  inhibition at 1 µM            -3.51
2  CCN1C(=O)N(c2c(F)c(OC)cc(OC)c2F)Cc2cnc3[nH]c(CN4CCOCC4)cc3c21  inhibition at 1 µM                8
3  C=CC(=O)N1CCC([C@@H]2CCNc3c(C(N)=O)c(-c4ccc(Oc5ccccc5)cc4)nn32)CC1  inhibition at 1 µM            -2.33
4  Cc1cc(Nc2ncnc3ccc(NC4=NC(C)(C)CO4)cc23)ccc1Oc1ccn2ncnc2c1  inhibition at 1 µM               -4
5  O=C(Nc1cnn2ccc(N3CCC[C@@H]3c3cc(F)ccc3F)nc12)N1CC[C@H](O)C1  inhibition at 1 µM               -4
6  COC(=O)N[C@@H](C)CNc1nccc(-c2cn(C(C)C)nc2-c2cc(Cl)cc(NS(C)(=O)=O)c2F)n1  inhibition at 1 µM              3.5
7  COc1ccc(CN2C3CC2CN(c2ccc(-c4cc(OCC(C)(C)O)cn5ncc(C#N)c45)cn2)C3)cn1  inhibition at 1 µM               10

src = paper PMC9516332
